molecular target: UniProt:Q70CQ3; assay: inhibitors of ubiquitin-specific protease 30 deubiquitylating enzyme, concentration dependence, in vitro biochemical, validation of primary hits (AID 1645865); details: purified USP30, Ub-rhodamine cleavage, fluorescence, 2 h
Sequence (Q70CQ3 whole entry, looked up): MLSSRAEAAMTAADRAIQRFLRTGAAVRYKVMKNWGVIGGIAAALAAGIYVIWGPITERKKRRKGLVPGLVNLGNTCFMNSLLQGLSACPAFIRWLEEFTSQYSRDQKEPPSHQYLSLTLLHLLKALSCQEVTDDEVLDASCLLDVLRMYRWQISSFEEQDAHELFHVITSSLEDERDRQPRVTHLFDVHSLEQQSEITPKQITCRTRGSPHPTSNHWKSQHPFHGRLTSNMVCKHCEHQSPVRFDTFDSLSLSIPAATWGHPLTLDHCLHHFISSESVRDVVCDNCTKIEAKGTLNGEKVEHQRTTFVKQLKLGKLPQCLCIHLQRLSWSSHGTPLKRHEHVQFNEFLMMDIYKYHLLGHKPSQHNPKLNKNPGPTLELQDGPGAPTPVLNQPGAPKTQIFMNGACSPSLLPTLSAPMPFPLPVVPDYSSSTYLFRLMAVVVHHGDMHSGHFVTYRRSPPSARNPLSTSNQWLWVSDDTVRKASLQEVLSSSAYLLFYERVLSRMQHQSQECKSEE
The source made the active and inactive calls.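 The calls were made as follows: active = maximal inhibition of the USP30 enzyme reaching 30% or more across the dose series; inactive = the rest.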
Hi! Could you answer with just one of these? YES for active, NO for inactive

compound	assigned label
O=C(CSc1nnnn1-c1ccccc1)Nc1ccccc1	YES
O=C(CSc1nnc(CNC(=O)c2ccccc2F)o1)Nc1ccc(OC(F)(F)F)cc1	YES
O=C(Cn1nnc(-c2ccc(F)cc2)n1)NCCc1ccccc1	NO
COc1ccc(C(=O)CSc2ccc3nnc(CCNC(=O)c4ccc(OC)cc4)n3n2)cc1	NO
CC(=O)Nc1ccc(Cc2nc(-c3ccc4c(c3)nc(C)c(=O)n4C3CCCC3)no2)cc1	NO

Prompt: Per the records of this test, what outcome belongs to O=c1c(OC2O[C@H](CO)[C@H](O)[C@H](O)[C@H]2O)c(-c2ccc(O)cc2)oc2cc(O)cc(O)c12 (stereo not given in full) ?
Completion: NO
